test: Selectivity index, ratio of IC50 for human LL24 cells to IC50 for Trypanosoma cruzi Silvio X10 cl1 epimastigote forms; format: toxicity, cell-based; settings: read-out: Ratio IC50
# reported selectivity ratio; entries follow

1) CCCOc1ccc(C(=O)N/N=C/c2ccc([N+](=O)[O-])o2)cc1 > 16
2) O=C(N/N=C/c1ccc([N+](=O)[O-])o1)c1ccccc1Oc1ccccc1 > 16
3) N#Cc1ccc(C(=O)N/N=C/c2ccc([N+](=O)[O-])o2)cc1 > 5
4) CCCCc1ccc(C(=O)N/N=C/c2ccc([N+](=O)[O-])o2)cc1 > 42

Input `Cc1cccc(C(=O)N/N=C/c2ccc([N+](=O)[O-])o2)c1` . Output selectivity ratio: > 7
